Numbers sourced from patent US4931475A.

Assay: Acute toxicity test
Set-up: species or system male dd-Y mice
Settings: mouse, in vivo; oral, mice, 7 days, Litchfield-Wilcoxon method, 95% reliability limit
observedProperty: LD50 at 168 h (mg/kg)
Number in mg/kg, nothing else.

Suppose we examine the compound C[C@H](CCC(=O)O)[C@H]1CC[C@H]2[C@@H]3C(=O)C[C@@H]4CC(=O)CC[C@]4(C)[C@H]3CC(=O)[C@]12C [sodium dehydrocholate, reference compound] ; what LD50 at 168 h value has been reported? 2500
